experiment: viability loss in pontine glioma line – cell-based, SU-DIPG-IV, MIPE4.0, CellTiter-Glo, qHTS, dose response (AID 1347063); conditions: CellTiter-Glo ATP luminescence;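 also: compound exposure lasted 48 hours before the viability readout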
Records with an inconclusive call do not appear. Calls of active or inactive are those of the source. The limit is not given here; nearly all actives have AC50 up to about 30 µM.
Select the matching outcome among y for active, n for inactive

Record excerpt, results attached:
Cc1ccccc1C(C(=O)NC1CCCCC1)N(C(=O)CNc1ccc(C#N)cc1)c1cccc(F)c1 (stereo not drawn); n
CC(C)C[C@H](NC(=O)[C@@H](NC(=O)c1cccc(-c2ccccc2)n1)[C@@H](C)O)B(O)O; y
CO[C@@H]1[C@@H](O)[C@H](O)[C@@H](n2c3c(Cl)cccc3c3c4c(c5c6cccc(Cl)c6[nH]c5c32)C(=O)NC4=O)O[C@H]1CO; y
CCN1CCN(c2ccc(Nc3cc(N(C)C(=O)Nc4c(Cl)c(OC)cc(OC)c4Cl)ncn3)cc2)CC1; y
COc1cc2c(Oc3ccc(NC(=O)C4(C(=O)Nc5ccc(F)cc5)CC4)cc3F)ccnc2cc1OCCCN1CCOCC1; y
NC(CO)(CO)CCc1ccc(Sc2cccc(OCc3ccccc3)c2)cc1Cl; y

Write down the call the test reported for this compound. Item: CO/N=C(/C(=O)N[C@@H]1C(=O)N2C(C(=O)O)=C(Cn3ccc(=N)n3CCO)CS[C@H]12)c1csc(N)n1
n

Write down the call the test reported for this compound. Item: CC(/C=C/C(=O)NO)=C\[C@@H](C)C(=O)c1ccc(N(C)C)cc1
y

* * *

assay: drug combination growth inhibition, ovarian cancer – cell-based, oncology-focused library, rucaparib conditional, profiling panel (AID 1508598); conditions: patient-derived ovarian cancer cells, CellTiter-Glo viability, 144 h; at 0.000305 µM; OCI-P5x cells; with rucaparib 20 µM; stronger effect = lower value; 100% = cells with rucaparib alone
Kindly state viability for each of the entries shown.
One number for each entry, in %.

Nc1cccc2c1C(=O)N(C1CCC(=O)NC1=O)C2=O (stereo not drawn); 110
COc1ccc(C2=NC(c3ccc(Cl)cc3)C(c3ccc(Cl)cc3)N2C(=O)N2CCNC(=O)C2)c(OC(C)C)c1 (stereo not drawn); 108
C=CC(=O)Nc1cc(Nc2nccc(-c3cn(C)c4ccccc34)n2)c(OC)cc1N(C)CCN(C)C; 95.5
Nc1nc(Nc2ccc(S(N)(=O)=O)cc2)nn1C(=O)c1c(F)cccc1F; 89.3
CNC(=O)c1cc(COc2nnc(Nc3ccc(Cl)cc3)c3ccoc23)ccn1; 105
Fc1cc(-c2cccc3ncc(-c4cnn(C5CCNCC5)c4)nc23)cc(F)c1CN1CCOCC1; 77.7
CN1CCN(c2ccc3nc(-c4c(N)c5c(F)cccc5[nH]c4=O)[nH]c3c2)CC1; 123
COC(=O)Nc1ccc(-c2nc(N3CCOCC3)c3cnn(C4CCN(C(=O)OC)CC4)c3n2)cc1; 94.1

Dear colleague, could you please provide viability for the compounds listed below?
1. CCN(CC)CCCCNc1ncc2cc(-c3cc(OC)cc(OC)c3)c(NC(=O)NC(C)(C)C)nc2n1
2. CN1CCN(c2ccc(OC(F)(F)F)c(Nc3ncc4c(n3)-c3c(c(C(N)=O)nn3CCO)CC4)c2)CC1
3. O=C(Cc1ccc(-c2ccc(OCCN3CCOCC3)cc2)cn1)NCc1ccccc1
4. Cc1ccc2nc(NC(=O)CSc3nc4c(c(=O)n3-c3ccccc3)SCC4)sc2c1
5. CNC(=O)c1ccc(C)c(-n2c(C)cc(OCc3ccc(F)cc3F)c(Br)c2=O)c1

1: 96.8; 2: 90; 3: 109; 4: 106; 5: 115

Dear colleague, could you please provide viability for the compounds listed below?
1. COc1cc(OC2CCN(C)CC2)ccc1Nc1ncc2c(n1)n(C1CCCC1)c(=O)n2C
2. COc1cc(OC)c(/C=C/S(=O)(=O)Cc2ccc(OC)c(NCC(=O)O)c2)c(OC)c1
3. CC[C@@H]1C(=O)N(C)c2cnc(Nc3ccc(C(=O)NC4CCC(N5CCN(CC6CC6)CC5)CC4)cc3OC)nc2N1C(C)C (stereo partly drawn)
4. COc1cc2nccc(Oc3ccc(NC(=O)C4(C(=O)Nc5ccc(F)cc5)CC4)cc3)c2cc1OC

1: 116; 2: 106; 3: 97.4; 4: 85.5

Dear colleague, could you please provide viability for the compounds listed below?
1. COc1cc2nccc(Oc3ccc(NC(=O)NC4CC4)c(Cl)c3)c2cc1C(N)=O
2. C[C@@H]1CN(CC(=O)Nc2ccc3c(c2)Cc2cccc(-c4cc(=O)cc(N5CCOCC5)o4)c2S3)C[C@H](C)O1
3. CCCCc1nc2cc(/C=C/C(=O)NO)ccc2n1CCN(CC)CC
4. Cc1ccc2c(=O)c3cccc(CC(=O)O)c3oc2c1C
5. NC(=O)Nc1cc(-c2cccc(F)c2)sc1C(=O)N[C@H]1CCCNC1
6. CN(C)Cc1c(C(=O)NCCOc2ccc(C(=O)NO)cc2)oc2ccccc12
7. COCCn1c2c([n+](Cc3cnccn3)c1C)C(=O)c1ccccc1C2=O

111
111
93.3
97
76
105
116

Dear colleague, could you please provide viability for the compounds listed below?
1. CC[C@@H]1C(=O)N(C)c2cnc(Nc3ccc(C(=O)NC4CCN(C)CC4)cc3OC)nc2N1C1CCCC1
2. CN1CCC(CNc2ccc3ncc(-c4cccc(OC(F)(F)F)c4)n3n2)CC1

1. 89.2
2. 97.3

* * *

assay: BT084 cell growth, single and combined drugs, ICGC_MB145, cisplatin and BGB IC40 combos (AID 1671461); conditions: BT084 medulloblastoma cells, drug combinations, cisplatin combination, at 0.5 µM, stronger effect = higher value;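 also: cells exposed to drugs for 96 hours; 0% = vehicle DMSO and 100% = high DMSO full killing control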
Kindly state inhibition for each of the entries shown.
Numbers only, in %.

Look over these answered cases.
Nc1nc2n[nH]nc2c(=O)[nH]1; -3.22
CCCCc1nc2cc(/C=C/C(=O)NO)ccc2n1CCN(CC)CC; 62.4
Cc1cn([C@@H]2O[C@H](CO)[C@@H](O)[C@@H]2F)c(=O)[nH]c1=O; 3.7

Dear colleague, could you please provide inhibition for the compounds listed below?
1. O=c1[nH]c([C@@H]2CCCN2)nc2c1oc1ccc(Cl)cc12
2. CN[C@@H]1CN(c2ccc3c(=O)c(C(=O)O)cn(-c4nccs4)c3n2)C[C@H]1OC
3. O=c1cc(N2CCOCC2)oc2c(-c3cccc4c3sc3ccccc34)cccc12
4. CO[C@H]1/C=C/O[C@@]2(C)Oc3c(C)c(O)c4c(O)c(c(/C=N\N5CCN(C6CCCC6)CC5)c(O)c4c3C2=O)NC(=O)/C(C)=C\C=C\[C@H](C)[C@H](O)[C@@H](C)[C@@H](O)[C@@H](C)[C@H](OC(C)=O)[C@@H]1C
5. CS(=O)(=O)c1ccc(-c2nnc(/C=C/c3nnc(-c4ccc(C#N)cc4)o3)n2-c2ccccc2Cl)nc1

[0.765, -18.3, -22.9, -31.9, 3.06]

The recorded inhibition for c1cc(Nc2cc(C3CC3)[nH]n2)nc(Nc2ccc3nc[nH]c3c2)n1 is 31.8

* * *

assay: growth inhibition of DIPG cells – cell-based, MIPE5.0 library, qHTS (AID 1347068); conditions: SU-DIPG-XXV viability;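 as to IC50: cells exposed to compound for 48 hours before viability readout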
Records with an inconclusive call do not appear. Activity calls are given as the source filed them. No cut-off is given here; in the data, nearly all actives have IC50 up to about 30 µM.
Select the matching outcome among Y = active, N = inactive

Record excerpt, results attached:
COc1cc2c(cc1OC)CN(CCc1ccc(-n3nnc(-c4cc(OC)c(OC)cc4NC(=O)c4cc(=O)c5ccccc5o4)n3)cc1)CC2; N
Cc1ccc(C(N)=O)cc1Nc1nccc(-c2cn(C(C)C)c3cnccc23)n1; Y
O=C(NO)C1(CS(=O)(=O)c2ccc(Oc3ccc(Cl)cc3)cc2)CCOCC1; N
COc1ccc(S(=O)(=O)Nc2cc(-c3c(O)ccc4ccccc34)c(O)c3ccccc23)cc1; N
N#CCNC(=O)c1ccc(-c2ccnc(Nc3ccc(N4CCOCC4)cc3)n2)cc1; Y

Moving on to the next molecule.
Write down the call the test reported for this molecule. Item: CC1CCC(n2c3cnccc3c3cnc(Nc4ccc5c(n4)CCN(C(=O)CO)C5)nc32)CC1 (centres undefined)
N

* * *

Kindly state viability for each of the entries shown.
assay: drug combination growth inhibition, ovarian cancer – cell-based, oncology-focused library, rucaparib conditional, profiling panel (AID 1508598); conditions: patient-derived ovarian cancer cells, CellTiter-Glo viability, 144 h; at 0.0195 µM; OCI-P5x cells; without rucaparib; stronger effect = lower value
Active and inactive are the calls of the source.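 Rule for the calls: active = normalized viability below 100% at a tested concentration; inactive = the rest.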

Dear colleague, could you please provide viability for the compounds listed below?
1. COC(=O)c1ccc2c(C(=Nc3ccc(N(C)C(=O)CN4CCN(C)CC4)cc3)c3ccccc3)c(O)[nH]c2c1
2. COc1cc2nccc(Oc3ccc(NC(=O)Nc4cc(C)on4)c(Cl)c3)c2cc1OC
3. COc1nc(C)cnc1NS(=O)(=O)c1cccnc1-c1ccc(-c2nnco2)cc1
4. CNC(=O)c1cc(Oc2ccc(NC(=O)Nc3ccc(Cl)c(C(F)(F)F)c3)c(F)c2)ccn1

1: 97.5% (active); 2: 86.6% (active); 3: 108% (inactive); 4: 116% (inactive)

Dear colleague, could you please provide viability for the compounds listed below?
1. CN1CCN(c2nc(C3=C(c4c[nH]c5ccccc45)C(=O)NC3=O)c3ccccc3n2)CC1
2. Cn1cc(-c2ccc3nnc(C(F)(F)c4ccc5ncccc5c4)n3n2)cn1
3. Cn1cc(CNCC2CCN(c3ncc(C(=O)NO)cn3)CC2)c2ccccc21
4. CC(=O)Nc1nc(C)c(-c2ccc(Cl)c(S(=O)(=O)NCCO)c2)s1

1. 96.2% (active)
2. 98.3% (active)
3. 51.7% (active)
4. 115% (inactive)

Dear colleague, could you please provide viability for the compounds listed below?
1. CN(C)CC[C@H](CSc1ccccc1)Nc1ccc(S(=O)(=O)NC(=O)c2ccc(N3CCN(Cc4ccccc4-c4ccc(Cl)cc4)CC3)cc2)cc1[N+](=O)[O-]
2. C#Cc1cccc(Nc2ncnc3cc(OC)c(OCCCCCCC(=O)NO)cc23)c1
3. CC(C)Oc1ccc(C(=O)N[C@H](CNC(=O)CN(C)C)Cc2ccc(-c3cn4cccc([C@H](C)O)c4n3)cc2)cc1Cl
4. COc1cc(OC2CCN(C)CC2)ccc1Nc1ncc2c(n1)n(C1CCCC1)c(=O)n2C
5. CCOc1cc(N2CCC(O)CC2)ccc1Nc1ncc2c(n1)N(C)c1ccccc1C(=O)N2C

1: 101% (inactive); 2: 109% (inactive); 3: 38.4% (active); 4: 94% (active); 5: 99.5% (active)

Every entry's value here was drawn from PubChem BioAssay.
